- System: 677734-321-R-J1-PDC complex spheroid viability
- assay.method.text: Anticancer human tumor 677734-321-R-J1-PDC patient-derived soft tissue sarcoma cell line growth inhibition [POLQ]
- particulars: second compound 1 µM; first compound 1 µM; stronger effect = lower value
reported.endpoint: viability, T/C (%)
Lab book: enter the figure in %, no units written.

In the examples that follow, each entry is paired with its recorded viability, T/C.
INSERT INTO measurements (compound, reported_endpoint, measured_number) VALUES
  ('COc1ccc([C@@H](O)c2cc(-c3ncnc4cc(N5CCOCC5)ccc34)c(F)cc2Cl)nn1 + Nc1ccc(C#CCN(C(=O)Cc2ncc(C(F)(F)F)cc2C(F)(F)F)c2ccc(F)cc2)nn1', 'viability, T/C', 90.4),
  ('COc1cc2cc(C(=O)CCC(=O)O)sc2cc1OC + Nc1ccc(C#CCN(C(=O)Cc2ncc(C(F)(F)F)cc2C(F)(F)F)c2ccc(F)cc2)nn1', 'viability, T/C', 104),
  ('CCc1cc2c(N3CCc4c(cc(Cn5ccnc5)cc4-c4cn(C)nc4C(F)(F)F)C3=O)cc(C)nc2c(OC)n1 + Nc1ccc(C#CCN(C(=O)Cc2ncc(C(F)(F)F)cc2C(F)(F)F)c2ccc(F)cc2)nn1', 'viability, T/C', 90.1),
  ('CC1COCCN1c1cc(C2(O)CC3CCC(C2)O3)c2cnn(-c3ccn[nH]3)c2n1 (stereo unspecified) + Nc1ccc(C#CCN(C(=O)Cc2ncc(C(F)(F)F)cc2C(F)(F)F)c2ccc(F)cc2)nn1', 'viability, T/C', 7.59),
  ('CCc1cc2c(N3CCc4c(cc(Cn5ccnc5)cc4-c4cn(C)nc4C(F)(F)F)C3=O)cc(C)nc2c(OC)n1 + COC1C(OC(N)=O)C(O)C(Oc2ccc3c(O)c(NC(=O)c4ccc(O)c(CC=C(C)C)c4)c(=O)oc3c2C)OC1(C)C', 'viability, T/C', 93.4);

// sample CC1COCCN1c1cc(-c2ccnn2C)c2ccnc(-c3ccn[nH]3)c2n1 (stereo unspecified) + COC1C(OC(N)=O)C(O)C(Oc2ccc3c(O)c(NC(=O)c4ccc(O)c(CC=C(C)C)c4)c(=O)oc3c2C)OC1(C)C , its viability, T/C was 16.6

Record O=c1[nH]cc(F)c(=O)[nH]1 + Nc1ccc(C#CCN(C(=O)Cc2ncc(C(F)(F)F)cc2C(F)(F)F)c2ccc(F)cc2)nn1 , field viability, T/C: 90.8

COc1cc(C2c3cc4c(cc3C(OC3OC5COC(C)OC5C(O)C3O)C3COC(=O)C23)OCO4)cc(OC)c1O (stereo unspecified) + Nc1ccc(C#CCN(C(=O)Cc2ncc(C(F)(F)F)cc2C(F)(F)F)c2ccc(F)cc2)nn1 has a reported viability, T/C of 36.2

Documented viability, T/C of COc1ccc([C@@H](O)c2cc(-c3ncnc4cc(N5CCOCC5)ccc34)c(F)cc2Cl)nn1 + Cc1cccc(N(C)C(=O)C2C(O)CCN2c2nc(C)cc(C(F)(F)F)c2C#N)c1 : 90.1

---

- System: 677734-321-R-J1-PDC complex spheroid viability
- assay.method.text: Anticancer human tumor 677734-321-R-J1-PDC cell line growth inhibition [POLQ]; active = viability on the fitted dose curve at most 10% of control; inactive = the rest;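 also: spheroids exposed to compounds for one week; 100% = vehicle DMSO treated spheroids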
- particulars: second compound 1 µM; first compound 1 µM
Assign a class; possible classes are active, inactive

Examples with answers:
INSERT INTO measurements (compound, assigned_class) VALUES
  ('CCc1cc2c(N3CCc4c(cc(Cn5ccnc5)cc4-c4cn(C)nc4C(F)(F)F)C3=O)ccnc2c(OC)n1 + Nc1ccc(C#CCN(C(=O)Cc2ncc(C(F)(F)F)cc2C(F)(F)F)c2ccc(F)cc2)nn1', 'inactive'),
  ('O=C(Nc1ccc(O)c(NS(=O)(=O)c2ccc(F)cc2)c1)c1ccc(-c2ccccc2)cc1 + Nc1ccc(C#CCN(C(=O)Cc2ncc(C(F)(F)F)cc2C(F)(F)F)c2ccc(F)cc2)nn1', 'inactive'),
  ('CNCc1ccc(-c2[nH]c3cc(F)cc4c3c2CCNC4=O)cc1 + COC1C(OC(N)=O)C(O)C(Oc2ccc3c(O)c(NC(=O)c4ccc(O)c(CC=C(C)C)c4)c(=O)oc3c2C)OC1(C)C', 'inactive'),
  ('CCCS(=O)(=O)Nc1ccc(F)c(C(=O)c2c[nH]c3ncc(-c4ccc(Cl)cc4)cc23)c1F + Nc1ccc(C#CCN(C(=O)Cc2ncc(C(F)(F)F)cc2C(F)(F)F)c2ccc(F)cc2)nn1', 'inactive'),
  ('O=C(c1cc(Cc2n[nH]c(=O)c3ccccc23)ccc1F)N1CCN(C(=O)C2CC2)CC1 + COC1C(OC(N)=O)C(O)C(Oc2ccc3c(O)c(NC(=O)c4ccc(O)c(CC=C(C)C)c4)c(=O)oc3c2C)OC1(C)C', 'inactive'),
  ('CCc1cc2c(N3CCc4c(cc(Cn5ccnc5)cc4-c4cn(C)nc4C(F)(F)F)C3=O)ccnc2c(OC)n1 + Cc1cccc(N(C)C(=O)C2C(O)CCN2c2nc(C)cc(C(F)(F)F)c2C#N)c1', 'inactive'),
  ('C=CCn1c(=O)c2cnc(Nc3ccc(N4CCN(C)CC4)cc3)nc2n1-c1cccc(C(C)(C)O)n1 + Cc1cccc(N(C)C(=O)C2C(O)CCN2c2nc(C)cc(C(F)(F)F)c2C#N)c1', 'inactive'),
  ('O=C(c1cc(Cc2n[nH]c(=O)c3ccccc23)ccc1F)N1CCN(C(=O)C2CC2)CC1 + Cc1cccc(N(C)C(=O)C2C(O)CCN2c2nc(C)cc(C(F)(F)F)c2C#N)c1', 'inactive');

Data request: Name the outcome recorded for CC(C)n1c(=O)n(C)c2cnc3cc(F)c(-c4ccc(OCCCN5CCCCC5)nc4)cc3c21 + COC1C(OC(N)=O)C(O)C(Oc2ccc3c(O)c(NC(=O)c4ccc(O)c(CC=C(C)C)c4)c(=O)oc3c2C)OC1(C)C in the assay.
Data returned: inactive

Data request: Record request — test call for CCc1c2c(nc3ccc(O)cc13)-c1cc3c(c(=O)n1C2)COC(=O)[C@]3(O)CC + Nc1ccc(C#CCN(C(=O)Cc2ncc(C(F)(F)F)cc2C(F)(F)F)c2ccc(F)cc2)nn1
Data returned: active

---

Below, each entry is listed with its recorded viability, T/C.
- System: 677734-321-R-J1-PDC complex spheroid viability
- assay.method.text: Anticancer human tumor 677734-321-R-J1-PDC cell line growth inhibition [POLQ];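 also: spheroids exposed to compounds for one week; 100% = vehicle DMSO treated spheroids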
- particulars: second compound 1 µM; first compound 0.1 µM; stronger effect = lower value

INSERT INTO results (compound, result) VALUES
  ('COc1ccc([C@@H](O)c2cc(-c3ncnc4cc(N5CCOCC5)ccc34)c(F)cc2Cl)nn1 + COC1C(OC(N)=O)C(O)C(Oc2ccc3c(O)c(NC(=O)c4ccc(O)c(CC=C(C)C)c4)c(=O)oc3c2C)OC1(C)C', '102%'),
  ('CCCS(=O)(=O)Nc1ccc(F)c(C(=O)c2c[nH]c3ncc(-c4ccc(Cl)cc4)cc23)c1F + Nc1ccc(C#CCN(C(=O)Cc2ncc(C(F)(F)F)cc2C(F)(F)F)c2ccc(F)cc2)nn1', '103%');

Now, please, on to the next compound.
Entry Cn1ncnc1[C@H]1c2n[nH]c(=O)c3cc(F)cc(c23)N[C@@H]1c1ccc(F)cc1 + Cc1cccc(N(C)C(=O)C2C(O)CCN2c2nc(C)cc(C(F)(F)F)c2C#N)c1 : viability, T/C on 677734-321-R-J1-PDC complex spheroid viability = 94.5%

---

- Tested on: 677734-321-R-J1-PDC complex spheroid viability
- assay.method.text: Anticancer human tumor 677734-321-R-J1-PDC cell line growth inhibition [POLQ];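 also: spheroids exposed to compounds for one week; 100% = vehicle DMSO treated spheroids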
- particulars: second compound 0.0316 µM; first compound 0.00316 µM; stronger effect = lower value
Below, each of the compounds is paired with its reported viability, T/C value.
Response body: numeric value in %, unit text excluded.

Example entries and their recorded answers appear below.
INSERT INTO assay_data (compound, reading_unit, measured_number) VALUES
  ('C=CCn1c(=O)c2cnc(Nc3ccc(N4CCN(C)CC4)cc3)nc2n1-c1cccc(C(C)(C)O)n1 + COC1C(OC(N)=O)C(O)C(Oc2ccc3c(O)c(NC(=O)c4ccc(O)c(CC=C(C)C)c4)c(=O)oc3c2C)OC1(C)C', '%', 110),
  ('C=CCn1c(=O)c2cnc(Nc3ccc(N4CCN(C)CC4)cc3)nc2n1-c1cccc(C(C)(C)O)n1 + Nc1ccc(C#CCN(C(=O)Cc2ncc(C(F)(F)F)cc2C(F)(F)F)c2ccc(F)cc2)nn1', '%', 114),
  ('CCc1c2c(nc3ccc(O)cc13)-c1cc3c(c(=O)n1C2)COC(=O)[C@]3(O)CC + Cc1cccc(N(C)C(=O)C2C(O)CCN2c2nc(C)cc(C(F)(F)F)c2C#N)c1', '%', 34),
  ('COc1cccc(OCCCN)c1-c1cc(Nc2cnc(C#N)cn2)n[nH]1 + Nc1ccc(C#CCN(C(=O)Cc2ncc(C(F)(F)F)cc2C(F)(F)F)c2ccc(F)cc2)nn1', '%', 101);

// viability, T/C value for CC[C@@]1(O)C(=O)OCc2c1cc1n(c2=O)Cc2cc3c(CN(C)C)c(O)ccc3nc2-1 + COC1C(OC(N)=O)C(O)C(Oc2ccc3c(O)c(NC(=O)c4ccc(O)c(CC=C(C)C)c4)c(=O)oc3c2C)OC1(C)C : 105
